- system name: human TAAR1 (Homo sapiens)
- Sequence (Q96RJ0 1-339): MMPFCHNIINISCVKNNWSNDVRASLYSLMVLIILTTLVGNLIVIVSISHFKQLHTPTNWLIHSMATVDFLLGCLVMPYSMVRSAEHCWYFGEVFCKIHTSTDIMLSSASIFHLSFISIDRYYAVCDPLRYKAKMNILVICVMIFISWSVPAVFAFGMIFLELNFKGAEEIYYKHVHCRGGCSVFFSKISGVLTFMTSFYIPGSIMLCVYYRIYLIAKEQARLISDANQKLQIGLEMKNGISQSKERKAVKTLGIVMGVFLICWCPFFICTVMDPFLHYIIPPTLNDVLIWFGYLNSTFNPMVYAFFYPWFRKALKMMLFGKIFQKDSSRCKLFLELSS
- assay overview: TAAR1 antagonist activity, Hit Hunter cAMP assay
- Assay type: cell-based
- stated conditions: n.a. = no activity at 10–5 M; read-out: TAAR1 Ant EC50
reported endpoint: pEC50
Here pEC50 is given on a logarithmic scale as minus log10 of the concentration in mol/L.

Entry N#Cc1c(C(F)(F)F)cc(-c2ccc(Cl)cc2)nc1SCC(=O)Nc1ncccn1 , human TAAR1 (Homo sapiens) data, pEC50 value: 6.78
